molecular target: human CB2 receptor (Homo sapiens, UniProt P34972); construct: expressed in transfected cells; assay: Human CB2 receptor binding inhibition test ([3H]CP-55,940, CHO membrane fractions); settings: [3H]CP-55,940, membrane fractions of CHO cells stably expressing human CB2 receptor, 25° C., 2 hours; read-out: CB2 IC50 (Inhibition of binding to human CB2 receptor)
Sequence (P34972 whole entry): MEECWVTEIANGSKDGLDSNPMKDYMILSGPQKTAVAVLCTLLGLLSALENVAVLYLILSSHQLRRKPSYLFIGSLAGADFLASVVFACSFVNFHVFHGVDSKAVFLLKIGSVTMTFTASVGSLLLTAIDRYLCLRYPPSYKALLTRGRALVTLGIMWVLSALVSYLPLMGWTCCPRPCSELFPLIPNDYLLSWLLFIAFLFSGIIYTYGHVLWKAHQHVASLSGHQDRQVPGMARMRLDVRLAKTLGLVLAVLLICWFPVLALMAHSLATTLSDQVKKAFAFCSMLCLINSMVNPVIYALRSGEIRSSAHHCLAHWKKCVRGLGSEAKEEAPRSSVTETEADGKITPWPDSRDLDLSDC
IC50 less than 3 nM is Criterion met; IC50 greater than or equal to 3 nM is Criterion not met.

Molecule | Class Name
CC(C)(C)c1c/c(=N\C(=O)c2cccc(C(F)(F)F)c2)n(CC2CC2)s1 [compound 57] | Criterion not met
Cc1c(C(C)(C)C)s/c(=N\C(=O)c2cc(F)c(F)cc2Cl)n1C [compound 135] | Criterion not met
COc1ccc(Cl)cc1C(=O)/N=c1\sc(C(C)(C)C)c(C)n1C [compound 146] | Criterion not met
COc1ccc(C(=O)/N=c2\sc(C(C)(C)C)c(C)n2CC2CC2)c(C)c1 [compound 261] | Criterion met
Cc1c(C(C)(C)C)s/c(=N\C(=O)c2ccc(F)cc2Br)n1CC1CC1 [compound 229] | Criterion met
Cc1c(C(C)(C)C)s/c(=N\C(=O)c2cc(Cl)ccc2Cl)n1CC1CC1 [compound 232] | Criterion met
Cc1c(C(C)(C)C)s/c(=N\C(=O)c2cc(F)ccc2Br)n1C [compound 131] | Criterion not met
Cc1c(C(C)(C)C)s/c(=N\S(=O)(=O)c2cccc(Cl)c2Cl)n1CC1CC1 [compound 399] | Criterion not met
Cc1c(C(C)(C)C)s/c(=N\C(=O)c2ccc(C#N)cc2)n1CC1CC1 [compound 210] | Criterion not met
CNc1ccccc1C(=O)/N=c1\sc(C(C)(C)C)c(C)n1CC1CC1 [compound 200] | Criterion not met
Cc1ccc/c(=N\C(=O)c2cccc(C(F)(F)F)c2F)n1CC1CC1 [compound 25] | Criterion not met
Cc1c(C(C)(C)C)s/c(=N/C(=O)c2cccnc2F)n1CC1CC1 [compound 300] | Criterion not met
Cc1ccc(C(=O)/N=c2\sc(C(C)(C)C)c(C)n2CC2CC2)c(Br)c1 [compound 246] | Criterion met
Cc1c(C(C)(C)C)s/c(=N\C(=O)c2cc(C(F)(F)F)ccc2N(C)C)n1CC1CC1 [compound 277] | Criterion not met
CC(C)OCCn1/c(=N/C(=O)c2cccc(C(F)(F)F)c2F)cc(C(C)(C)C)n1C [compound 493] | Criterion met
Cc1c(C(C)(C)C)s/c(=N\C(=O)C(F)(F)C(F)(F)C(F)(F)F)n1CC1CC1 [compound 336] | Criterion met
CCc1ccccc1C(=O)/N=c1\sc(C)c(C)n1CC1CC1 [compound 71] | Criterion not met

* * *

Listed next: entries and their corresponding IC50.
biological target: human CB1 receptor (Homo sapiens, UniProt P21554)
Sequence (P21554 whole entry): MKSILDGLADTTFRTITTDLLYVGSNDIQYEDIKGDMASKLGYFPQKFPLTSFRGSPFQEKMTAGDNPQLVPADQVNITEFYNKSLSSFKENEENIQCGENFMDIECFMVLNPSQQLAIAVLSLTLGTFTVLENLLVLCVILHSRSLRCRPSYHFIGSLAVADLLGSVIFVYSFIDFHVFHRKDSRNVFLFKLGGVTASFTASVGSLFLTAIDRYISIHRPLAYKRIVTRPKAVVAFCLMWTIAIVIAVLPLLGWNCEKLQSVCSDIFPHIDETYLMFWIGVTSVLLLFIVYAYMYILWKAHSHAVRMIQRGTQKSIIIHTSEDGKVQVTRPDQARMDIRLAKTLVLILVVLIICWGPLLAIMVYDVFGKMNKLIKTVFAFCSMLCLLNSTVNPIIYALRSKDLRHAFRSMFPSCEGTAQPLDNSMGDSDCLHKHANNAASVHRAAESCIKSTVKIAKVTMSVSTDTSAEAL

Sample Smiles | Units Of Measure | IC50
COc1ccc(C(=O)/N=c2\sc(C(C)(C)C)c(C)n2CC2CC2)c(C)c1 | nM | 375
CC(C)(C)c1c/c(=N\C(=O)c2cccc(C(F)(F)F)c2F)n(CC2CC2)s1 | nM | 294
CCOCCn1/c(=N/C(=O)c2cccc(Br)c2C)cc(C(C)(C)C)n1C | nM | 172
CCc1ccccc1C(=O)/N=c1\sc(C(C)(C)C)c(C)n1CC1CC1 | nM | 115

* * *

biological target: human CB2 receptor (Homo sapiens, UniProt P34972); construct: expressed in transfected cells; experiment: Human CB2 receptor binding inhibition test ([3H]CP-55,940, CHO membrane fractions); conditions: [3H]CP-55,940, membrane fractions of CHO cells stably expressing human CB2 receptor, 25° C., 2 hours; read-out: CB2 IC50 (Inhibition of binding to human CB2 receptor)
Listed next: entries and their corresponding IC50.
Endpoint Label: IC50 (nM)

Sample Smiles | Reported Result
Cn1c(C(C)(C)C)c/c(=N\C(=O)c2cccc(Cl)c2Cl)n1CC1CCC1 | 3.4
CC#CCn1c(C)c(C(C)(C)C)s/c1=N\S(=O)(=O)c1cccc2ccccc12 | 5.9
Cc1c/c(=N\C(=O)c2cccc(C(F)(F)F)c2F)n(CC2CC2)c(C)c1Br | 1.2
CCOCCn1/c(=N/C(=O)c2cccc(Cl)c2Cl)cc(C(C)(C)C)n1C | 5.1
Cc1c(C(C)(C)C)s/c(=N\C(=O)c2ccc(F)c(Cl)c2F)n1CC1CC1 | 14.2
CCOc1ccc(C(=O)/N=c2\sc(C(C)(C)C)c(C)n2CC2CC2)c(OCC)c1 | 13.1
Cc1c(C(C)(C)C)s/c(=N\C(=O)c2c(F)ccc(C(F)(F)F)c2F)n1CC1CC1 | 0.2
Cc1c(C(C)(C)C)s/c(=N\C(=O)c2ccc([N+](=O)[O-])o2)n1CC1CC1 | 18.6
Cc1c(C(C)(C)C)s/c(=N\C(=O)c2cc(Cl)cnc2Cl)n1CC1CC1 | 2.1
Cc1c(C(C)(C)C)s/c(=N\S(=O)(=O)c2c(Cl)cccc2Cl)n1CC1CC1 | 15.4
Cc1c(C(C)(C)C)s/c(=N\C(=O)c2ncccc2Br)n1CC1CC1 | 2.3
Cc1s/c(=N\C(=O)c2cc(F)c(Cl)cc2Cl)n(CC2CC2)c1C | 6.5
COc1ccccc1C(=O)/N=c1\sc(C(C)(C)C)c(C)n1CC1CC1 | 3.2
Cc1c(C(C)(C)C)s/c(=N\C(=O)c2cccc(C(F)(F)F)c2F)n1C | 13.9
CCn1c(C)c(C(C)(C)C)s/c1=N\C(=O)c1ccc(Cl)cc1OC | 5.4
Cc1c(C(C)(C)C)s/c(=N\C(=O)c2cccc(Cl)c2)n1CC1CC1 | 17
Cc1c(C(C)(C)C)s/c(=N\C(=O)c2ccccc2C(F)(F)F)n1C | 5.6

* * *

Target: human CB2 receptor (Homo sapiens, UniProt P34972)
Construct: expressed in transfected cells
Experiment: Human CB2 receptor binding inhibition test ([3H]CP-55,940, CHO membrane fractions)
Conditions: [3H]CP-55,940, membrane fractions of CHO cells stably expressing human CB2 receptor, 25° C., 2 hours; read-out: CB2 IC50 (Inhibition of binding to human CB2 receptor)
Procedure: Human CB2 Receptor Binding Inhibition Test […] After the filtrate was washed with an assay buffer containing 0.1% bovine serum albumin, the radioactivity on the glass filter was measured by a liquid scintillation counter. Nonspecific binding was measured in the presence of 2.0 μM CP-55,940 (manufactured by Tocris). […]
pIC50: −log10 of the molar value.
Label y when pIC50 >= 8; otherwise n.

Compound | Class Name
CCOCCn1/c(=N/C(=O)c2cccc(C(F)(F)F)c2F)cc(C(C)(C)C)n1C [compound 488] | y
Cc1cccc(Cl)c1C(=O)/N=c1\sc(C(C)(C)C)c(C)n1CC1CC1 [compound 244] | y
Cc1c(C(C)(C)C)s/c(=N\C(=O)c2cc(Br)ccc2OC(F)F)n1CC1CC1 [compound 266] | y
Cc1c(C(C)(C)C)s/c(=N\C(=O)c2cccc(Cl)c2F)n1CC1CC1 [compound 225] | y
Cc1c(C(C)(C)C)s/c(=N\C(=O)c2cc(C(F)(F)F)ccc2OC(C)C)n1CC1CC1 [compound 269] | y
Cc1s/c(=N\C(=O)c2cc(F)c(F)cc2Cl)n(CC2CC2)c1C [compound 85] | n

* * *

molecular target: human CB2 receptor (Homo sapiens); construct: expressed in transfected cells; test: Human CB2 receptor binding inhibition test ([3H]CP-55,940, CHO membrane fractions); conditions: [3H]CP-55,940, membrane fractions of CHO cells stably expressing human CB2 receptor, 25° C., 2 hours; read-out: CB2 IC50 (Inhibition of binding to human CB2 receptor)
Endpoint Label: log10 of IC50 (log10 of the value in nM)

Compound | Reported Result
Cc1c(C(C)(C)C)s/c(=N\C(=O)c2cc(F)ccc2Cl)n1C [compound 130] | 0.93
Cc1c(C(C)(C)C)s/c(=N\C(=O)c2ccc3nonc3c2)n1CC1CC1 [compound 320] | 0.79
CCc1ccccc1C(=O)/N=c1\sc(C(C)(C)C)c(C)n1CC1CC1 [compound 181] | -0.10
Cc1c(C(C)(C)C)s/c(=N\C(=O)c2cc(C(F)(F)F)ccc2C(F)(F)F)n1CC1CC1 [compound 220] | 0.59
Cc1s/c(=N\C(=O)c2cccc(Br)c2)n(CC2CC2)c1C [compound 77] | 1.29
CCn1c(C)c(C(C)(C)C)s/c1=N\C(=O)c1ccc(C)cc1Br [compound 163] | 1.17
Cc1nc(F)ccc1C(=O)/N=c1\sc(C(C)(C)C)c(C)n1CC1CC1 [compound 316] | 0.72
Cc1c(C(C)(C)C)s/c(=N\C(=O)c2cc(F)ccc2C(F)(F)F)n1C [compound 143] | 0.87
Cc1c(C(C)(C)C)s/c(=N\C(=O)c2ccc(F)cc2C(F)(F)F)n1CC1CC1 [compound 255] | -0.22
CCn1c(C)c(C(C)(C)C)s/c1=N\C(=O)c1ccc(Cl)cc1C [compound 162] | 1.08
CC(C)(C)c1nn(CC2CC2)/c(=N/C(=O)c2cccc(C(F)(F)F)c2F)o1 [compound 514] | 0.41
Cc1c(C(=O)/N=c2\cc(C(C)(C)C)n(C)n2CC2CCC2)cccc1C(F)(F)F [compound 483] | 0.92
Cc1c(C(C)(C)C)s/c(=N\C(=O)c2ccc(Cl)cc2F)n1CC1CC1 [compound 226] | 0.89
CCOCCn1/c(=N/C(=O)c2cccc(Cl)c2C)cc(C(C)(C)C)n1C [compound 490] | 1.00
Cc1s/c(=N\C(=O)c2cc(F)ccc2Cl)n(CC2CC2)c1C [compound 80] | 1.25
COc1ccc(C(=O)/N=c2\sc(C(C)(C)C)c(C)n2CC2CC2)c(OC)c1 [compound 236] | 0.30
CCOCCn1/c(=N/C(=O)c2cccc(Br)c2C)cc(C(C)(C)C)n1C [compound 491] | 0.97
Cc1cccc(C)c1C(=O)/N=c1\sc(C(C)(C)C)c(C)n1CC1CC1 [compound 218] | 0.76

Hello, the source for this data is patent US20080312435A1, in case you need it.
